These data points were gathered from the OligoGym collection.

# Experimental Target: FANCF; further: reference of the scale not given here
# Experiment Summary: pooled miR-30 sensor sort-seq; sequence = guide strand
# Cond: shRNA
Class boundaries, taken from values of sensor-assay potency score (higher = more potent), are as follows: LOW (below -1), MEDIUM (-1 to below -0.5), HIGH (-0.5 or more)

# Sequence String, Assigned Label
rows = [
    ("TATCTTTCAGAGGTGGAGGGGC", "HIGH"),
    ("TACTTCAAAATCTCCATCCTGC", "HIGH"),
    ("TTAGAACTTTATCTTTCAGAGG", "LOW"),
    ("AAGAGGTCTGTCCAGATGCTAA", "LOW"),
    ("TAGACAGGAGACAGCGCTGGGT", "MEDIUM"),
    ("AAACCTATTGTGCAACTCCTCC", "MEDIUM"),
    ("TTGGGTTCTCTCTATAGCCATT", "LOW"),
    ("TTCAAAATCTCCATCCTGCGCT", "HIGH"),
    ("TCTATAGCCATTGAAGCGCAGC", "LOW"),
    ("ATAGCCATTGAAGCGCAGCATG", "LOW"),
    ("TTATCTTTCAGAGGTGGAGGGG", "MEDIUM"),
    ("ATAGACAGGAGACAGCGCTGGG", "HIGH"),
    ("TGACAGAGGCTTTGAAACCTAT", "LOW"),
]
